- study-target: stabilized polymers of FtsZ from B. subtilis (Bacillus subtilis, UniProt P17865)
- Construct: made in house
- Sequence (P17865 whole entry): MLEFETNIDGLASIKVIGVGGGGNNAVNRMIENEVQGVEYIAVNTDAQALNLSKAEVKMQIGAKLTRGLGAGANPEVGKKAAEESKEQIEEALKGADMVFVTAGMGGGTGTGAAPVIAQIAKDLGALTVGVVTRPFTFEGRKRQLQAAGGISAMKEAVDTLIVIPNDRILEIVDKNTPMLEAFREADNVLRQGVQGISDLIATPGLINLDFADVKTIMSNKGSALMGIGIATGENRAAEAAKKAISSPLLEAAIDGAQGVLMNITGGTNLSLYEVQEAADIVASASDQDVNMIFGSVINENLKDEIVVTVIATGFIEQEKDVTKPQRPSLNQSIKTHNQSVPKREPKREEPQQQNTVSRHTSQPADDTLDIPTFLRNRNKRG
- assay-method-text: Competition assay: displacement of probe (R)-5 from stabilized BsFtsZ-GMPCPP polymers
- Type: binding
- protocol-conditions: stabilized polymers of FtsZ from B. subtilis; probe (R)-5; mean ± SEM; read-out: KD

compound | modifier-sign | Kd, nM
CCC[C@@H](COc1ccc(F)c(C(N)=O)c1F)Nc1cccc(C(F)(F)F)c1 [(S)-26] | = | 3800
NC(=O)c1c(F)ccc(OCc2cccc(C(F)(F)F)c2)c1F | = | 700
NC(=O)c1c(F)ccc(OCc2nc3cc(Cl)cnc3s2)c1F [PC190723, reference compound] | < | 100
NC(=O)c1cccc(OCc2cccc(Cl)c2)c1 | = | 9300
NC(=O)c1c(F)ccc(OCCCc2cccc(C(F)(F)F)c2)c1F | = | 1500
